List of residual activity values.
- targetEntity: HIPK1 (human)
- protocol: radiometric filter-binding kinase assay
- testContext: compound 0.01 µM
The answer is to be given in %; state only the numeric part.

Worked set:
COc1ccc(N(C(=O)Nc2c(C)cccc2C)c2cc(Nc3ccc(N4CCN(C)CC4)cc3)ncn2)c(OC)c1: 69
O=C(Nc1nc2cc(C(F)(F)F)cc(NC3CC3)n2n1)c1cccnc1: 96
CNC(=O)C1[C@H]2O[C@@](C)([C@@H]1N)n1c3ccccc3c3c4c(c5c6ccccc6n2c5c31)C(=O)NC4 (stereo not given in full): 98
CNc1nc(-c2ccc3c(N)n[nH]c3c2)cc(N2C[C@@H](C(=O)NC3CCCCC3)CC[C@H]2C)n1: 102

Sample COc1cc(O)c2c(c1)[C@H]1OC1C[C@H](O)[C@H](O)C(=O)/C=C\C[C@H](C)OC2=O (stereo not given in full) — what was its residual activity?
111

###

- targetEntity: RPS6KA1 KD1 KD2 (human) (UniProt Q15418)
- Sequence (Q15418 whole entry, looked up): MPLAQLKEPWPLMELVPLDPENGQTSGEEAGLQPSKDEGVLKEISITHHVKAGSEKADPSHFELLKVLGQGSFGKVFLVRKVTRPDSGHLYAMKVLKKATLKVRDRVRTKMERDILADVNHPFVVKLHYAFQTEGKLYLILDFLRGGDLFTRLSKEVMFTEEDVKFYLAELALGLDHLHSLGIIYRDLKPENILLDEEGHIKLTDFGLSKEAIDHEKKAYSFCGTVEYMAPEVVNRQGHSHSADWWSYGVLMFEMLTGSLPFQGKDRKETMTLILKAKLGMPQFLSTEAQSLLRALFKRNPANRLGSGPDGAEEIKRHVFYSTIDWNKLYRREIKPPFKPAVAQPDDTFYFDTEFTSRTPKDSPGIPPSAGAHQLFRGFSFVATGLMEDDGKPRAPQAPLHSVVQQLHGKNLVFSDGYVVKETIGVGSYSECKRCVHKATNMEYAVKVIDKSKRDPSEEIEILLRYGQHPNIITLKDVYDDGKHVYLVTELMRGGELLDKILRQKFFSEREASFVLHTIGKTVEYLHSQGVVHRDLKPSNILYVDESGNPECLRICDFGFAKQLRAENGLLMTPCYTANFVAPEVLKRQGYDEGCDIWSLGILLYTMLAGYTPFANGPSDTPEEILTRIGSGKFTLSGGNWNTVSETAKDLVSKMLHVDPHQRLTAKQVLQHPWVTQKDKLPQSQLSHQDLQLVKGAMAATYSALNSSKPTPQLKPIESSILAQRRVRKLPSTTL
- protocol: radiometric filter-binding kinase assay
- testContext: compound 100.0 µM
# key: entry, value: residual activity
Reply numerically in %, unit not repeated.

Examples with their reported residual activity follow.
Cc1ccc2c(c1)C(=O)[C@@]1(O)CCN(c3ccccc3)C1=N2: 77
N#Cc1c(O)c2c(-c3ccc(-c4ccccc4O)cc3)csc2[nH]c1=O: 12
Cc1cc(N=Nc2cc(S(=O)(=O)O)c(C)cc2C)c(N)cc1O: 99

Turning now to a further molecule:
Need residual activity of COC(=O)/C=C/C(=O)OC , thanks.
92

###

- targetEntity: SYK (human) (UniProt P43405)
- protocol: radiometric filter-binding kinase assay
- testContext: compound 10.0 µM
The compounds listed here are annotated with their residual activity.
Write the value in % as a bare number.

The examples below pair each entry with its known result.
c1ccc2c(-c3cnn4cc(-c5ccc(N6CCNCC6)cc5)cnc34)ccnc2c1: 36
C=CC(=O)N1CCC[C@@H](n2nc(-c3ccc(Oc4ccccc4)cc3)c3c(N)ncnc32)C1: 52
Cc1cc(SCc2sc(-c3ccc(C(F)(F)F)cc3)nc2C)ccc1OCC(=O)O: 85

# ---- query compound ----
Returns the measured residual activity for the input compound. Input: COc1cc(C(=O)N2CCOCC2)c(F)cc1Nc1ncc(C(F)(F)F)c(NC2CC2)n1
44

###

- targetEntity: PAK6 (human) (UniProt Q9NQU5)
- Sequence (Q9NQU5 whole entry, looked up): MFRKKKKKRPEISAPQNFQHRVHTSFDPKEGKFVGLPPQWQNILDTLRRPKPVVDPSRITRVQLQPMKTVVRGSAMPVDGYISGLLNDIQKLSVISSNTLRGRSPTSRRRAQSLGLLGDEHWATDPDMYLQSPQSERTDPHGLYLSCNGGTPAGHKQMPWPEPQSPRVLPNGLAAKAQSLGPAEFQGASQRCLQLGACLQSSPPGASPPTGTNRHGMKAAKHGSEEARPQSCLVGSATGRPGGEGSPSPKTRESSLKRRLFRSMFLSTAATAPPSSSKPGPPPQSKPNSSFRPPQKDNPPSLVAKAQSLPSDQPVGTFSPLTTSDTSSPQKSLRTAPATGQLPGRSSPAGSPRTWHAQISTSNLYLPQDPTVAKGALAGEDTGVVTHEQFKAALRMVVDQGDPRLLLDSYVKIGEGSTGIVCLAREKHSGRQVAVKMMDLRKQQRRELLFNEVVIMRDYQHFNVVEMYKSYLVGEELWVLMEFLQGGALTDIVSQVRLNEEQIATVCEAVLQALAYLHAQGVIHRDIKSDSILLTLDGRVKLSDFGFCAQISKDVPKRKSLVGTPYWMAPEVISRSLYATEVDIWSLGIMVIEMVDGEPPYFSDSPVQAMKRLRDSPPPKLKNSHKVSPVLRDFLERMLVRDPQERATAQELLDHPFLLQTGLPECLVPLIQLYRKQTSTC
- protocol: radiometric filter-binding kinase assay
- testContext: compound 0.1 µM
assayMetric: residual activity (%)
Give the quantity in %, number only.

Look over these answered cases.
C=CC(=O)N1CCC[C@@H](n2nc(-c3ccc(Oc4ccccc4)cc3)c3c(N)ncnc32)C1: 95
NC(=O)Nc1ccc2c(c1)/C(=C/c1cc(-c3cccnc3)c[nH]1)C(=O)N2: 86
CCn1c(-c2nonc2N)nc2cncc(CNC3CCNCC3)c21: 103
Cc1cccc(-c2nn(C(=S)Nc3ccccc3)cc2-c2ccnc3ccccc23)n1: 111
CN1CCN(CCOc2cc(OC3CCOCC3)c3c(Nc4c(Cl)ccc5c4OCO5)ncnc3c2)CC1: 90

Please report the recorded residual activity for CNC(=O)C1[C@H]2O[C@@](C)([C@@H]1N)n1c3ccccc3c3c4c(c5c6ccccc6n2c5c31)C(=O)NC4 (some centres undefined) .
2

Lookup C/C(=C1/C(=O)Nc2ccc(NC(N)=O)cc21)c1ccc[nH]1
88

One more compound: COc1ccc(-n2ncc3cnc(Nc4cc(OC)c(OC)c(OCCCN5CCN(C)CC5)c4)nc32)cc1
62

Ok, now NC(=O)c1cc2c(-c3cccc(-c4ccccc4)c3)cnc(N)c2s1
85

###

- targetEntity: MAPK8 (human) (UniProt P45983)
- Sequence (P45983 whole entry, looked up): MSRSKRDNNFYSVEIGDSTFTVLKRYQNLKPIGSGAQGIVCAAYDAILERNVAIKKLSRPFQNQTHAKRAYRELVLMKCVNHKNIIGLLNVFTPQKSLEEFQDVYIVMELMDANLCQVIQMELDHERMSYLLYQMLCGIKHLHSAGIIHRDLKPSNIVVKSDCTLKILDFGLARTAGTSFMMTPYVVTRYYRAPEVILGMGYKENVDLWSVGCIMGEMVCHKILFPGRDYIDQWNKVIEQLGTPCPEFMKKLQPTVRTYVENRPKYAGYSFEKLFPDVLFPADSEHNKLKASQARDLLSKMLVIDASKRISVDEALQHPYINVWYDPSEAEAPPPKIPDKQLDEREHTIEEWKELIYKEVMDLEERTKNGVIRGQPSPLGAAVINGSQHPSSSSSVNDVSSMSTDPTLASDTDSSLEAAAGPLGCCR
- protocol: radiometric filter-binding kinase assay
- testContext: compound 10.0 µM
assayMetric: residual activity (%)
The reply should contain only the number, in %.

COc1cc(C(=O)N2CCOCC2)c(F)cc1Nc1ncc(C(F)(F)F)c(NC2CC2)n1: 47

Item N#Cc1c(O)c2c(-c3ccc(-c4ccccc4O)cc3)csc2[nH]c1=O has what recorded residual activity?
99

Also Cc1ccc(=O)n(-c2ccccc2)c1 , if possible.
87

Entry Nc1cccc2c1CN(C1CCC(=O)NC1=O)C2=O (centres undefined) please
106

Now consider N#Cc1c(C2CCNCC2)cc(-c2c(O)cccc2OCC2CC2)nc1N and answer again.
80

Also Cc1cccc(Nc2nn(C)c3ncnc(N)c23)c1 , if possible.
97

Queued: NC(=O)c1ccc(-c2ccc(Oc3cncc4sc(-c5nn[nH]n5)cc34)cc2)cc1
77

Entry NC(=O)c1cc(-c2ccnc(NC3CCCCC3)c2)nc(N2CCNCC2)c1 please
38

And for O=C(N[C@@H](COc1ccc2[nH]c(=O)[nH]c2c1)c1ccccc1)c1cccn(Cc2ccc(F)c(F)c2)c1=O ?
114

# repeat for Oc1ccc(/C=C/c2cc(O)cc(O)c2)cc1
108

Another compound to check: CC1=C(CO)C(=O)O[C@@H]([C@@H](C)[C@H]2CC[C@H]3[C@@H]4C[C@H]5O[C@]56[C@@H](O)C=CC(=O)[C@]6(C)C4CC[C@]23C)C1 (some centres undefined)
110

Same read-out for Cc1ccc(Sc2cnc(Nc3cccc(Br)n3)s2)cc1C(=O)N1CCN(C(=O)CN)CC1 ?
53

Same for NC(=O)c1cc2c(-c3cccc(-c4ccccc4)c3)cnc(N)c2s1
15

Continue with O=C1NC(=S)N[C@@H]1Cc1c[nH]c2ccccc12
107

Try this compound next: COC(=O)/C=C/C(=O)OC
99

And what about the compound O=C(Nc1ccccc1-c1cn2c(CN3CCNCC3)csc2n1)c1cnc2ccccc2n1 ?
86

Also check CCc1cncnc1N1CCN(Cc2nc3cc(C(F)(F)F)ccc3[nH]2)CC1
95

Next compound up: CN1C(=O)[C@@H](Cc2c[nH]c3ccccc23)NC1=S
79

One more compound: Cc1ccc(-c2ccc3c(ccc4sc5c(c43)NC[C@@H](C)NC5=O)n2)cn1
92

Subsequent entry: O=C(NOC[C@H](O)CO)c1ccc(F)c(F)c1Nc1ccc(I)cc1Cl
117

###

- targetEntity: UniProt:P08069
- Sequence (P08069 whole entry, looked up): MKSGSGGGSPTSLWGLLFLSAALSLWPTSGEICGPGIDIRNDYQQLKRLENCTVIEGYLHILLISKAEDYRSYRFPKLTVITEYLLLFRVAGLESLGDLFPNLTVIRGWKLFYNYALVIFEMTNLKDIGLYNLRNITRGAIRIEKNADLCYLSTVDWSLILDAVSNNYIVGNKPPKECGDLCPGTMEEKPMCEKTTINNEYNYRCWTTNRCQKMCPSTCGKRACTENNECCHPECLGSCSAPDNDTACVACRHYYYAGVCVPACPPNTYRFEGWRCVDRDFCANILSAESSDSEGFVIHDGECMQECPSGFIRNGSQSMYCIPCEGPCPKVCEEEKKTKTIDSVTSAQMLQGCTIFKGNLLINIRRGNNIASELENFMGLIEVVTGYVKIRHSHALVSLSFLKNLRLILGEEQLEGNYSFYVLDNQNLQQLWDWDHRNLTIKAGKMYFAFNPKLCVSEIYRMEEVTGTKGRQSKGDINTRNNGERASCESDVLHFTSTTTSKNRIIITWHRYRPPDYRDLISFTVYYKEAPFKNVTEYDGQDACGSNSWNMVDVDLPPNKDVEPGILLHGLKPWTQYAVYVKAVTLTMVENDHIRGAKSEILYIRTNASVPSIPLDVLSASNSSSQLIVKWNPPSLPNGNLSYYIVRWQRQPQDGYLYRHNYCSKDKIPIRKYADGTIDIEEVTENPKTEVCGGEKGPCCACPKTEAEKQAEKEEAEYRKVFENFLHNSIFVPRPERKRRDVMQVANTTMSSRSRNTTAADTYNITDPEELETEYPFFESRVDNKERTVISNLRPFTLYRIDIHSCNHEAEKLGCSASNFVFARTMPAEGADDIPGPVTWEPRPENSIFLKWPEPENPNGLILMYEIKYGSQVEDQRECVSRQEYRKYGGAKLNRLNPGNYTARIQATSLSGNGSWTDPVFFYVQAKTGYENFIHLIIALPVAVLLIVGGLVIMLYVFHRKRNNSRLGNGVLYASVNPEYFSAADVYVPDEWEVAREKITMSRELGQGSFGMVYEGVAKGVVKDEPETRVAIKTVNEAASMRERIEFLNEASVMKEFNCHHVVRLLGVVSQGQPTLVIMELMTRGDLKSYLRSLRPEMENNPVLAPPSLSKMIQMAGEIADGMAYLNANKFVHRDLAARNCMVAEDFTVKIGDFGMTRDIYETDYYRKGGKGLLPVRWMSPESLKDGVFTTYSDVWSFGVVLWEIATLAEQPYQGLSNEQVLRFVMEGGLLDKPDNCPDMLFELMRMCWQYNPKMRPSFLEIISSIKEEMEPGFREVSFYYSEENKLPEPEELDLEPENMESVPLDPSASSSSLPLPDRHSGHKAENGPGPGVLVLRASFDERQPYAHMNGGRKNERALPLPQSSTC
- protocol: radiometric filter-binding kinase assay
- testContext: compound 10.0 µM
assayMetric: residual activity (%)
Respond with the bare value in %.

Below are worked cases with known answers.
Nc1cccc2c1CN(C1CCC(=O)NC1=O)C2=O (stereo unspecified): 106
CNc1nc(-c2ccc3c(N)n[nH]c3c2)cc(N2C[C@@H](C(=O)NC3CCCCC3)CC[C@H]2C)n1: 100

Request the reported residual activity associated with O=C(NOCC(O)CO)c1ccc(F)c(F)c1Nc1ccc(I)cc1Cl (stereo unspecified)
98

Another: O=S(=O)(c1ccc(F)c2nonc12)N1CCN(c2ncc(C(F)(F)F)cc2Cl)CC1
93

One more compound: NC(=O)c1ccc(-c2ccc(Oc3cncc4sc(-c5nn[nH]n5)cc34)cc2)cc1
95

One more compound: NC(=O)Nc1ccc2c(c1)/C(=C/c1cc(-c3cccnc3)c[nH]1)C(=O)N2
1

Likewise for O=C(O)c1cc(N=Nc2ccc(S(=O)(=O)Nc3ccccn3)cc2)ccc1O ?
98

Next up: CN1C(=O)[C@@H](Cc2c[nH]c3ccccc23)NC1=S
120

And CC(C)(C#N)c1ccc(N2C(=O)OCc3cnc4ccc(-c5cnc6ccccc6c5)cc4c32)cc1 ?
67

Thanks! And NC(=O)c1cc2c(-c3cccc(-c4ccccc4)c3)cnc(N)c2s1 ?
13

###

- targetEntity: MAPK13 (human) (UniProt O15264)
- Sequence (O15264 whole entry, looked up): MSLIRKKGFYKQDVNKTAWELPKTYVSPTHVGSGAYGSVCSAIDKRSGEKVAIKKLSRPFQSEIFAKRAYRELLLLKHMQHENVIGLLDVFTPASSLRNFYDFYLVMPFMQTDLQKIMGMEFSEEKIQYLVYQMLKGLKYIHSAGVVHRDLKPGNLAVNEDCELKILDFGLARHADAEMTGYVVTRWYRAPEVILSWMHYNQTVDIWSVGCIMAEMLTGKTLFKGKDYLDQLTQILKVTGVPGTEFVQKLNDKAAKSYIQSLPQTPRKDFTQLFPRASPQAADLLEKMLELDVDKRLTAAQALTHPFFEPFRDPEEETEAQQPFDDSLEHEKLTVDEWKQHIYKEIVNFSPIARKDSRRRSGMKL
- protocol: radiometric filter-binding kinase assay
- testContext: compound 1.0 µM
Hi! Could you tag entries with residual activity below 90% as true (1), and those at or above as false (0)? Much appreciated.

Some solved cases for reference:
CCc1cncnc1N1CCN(Cc2nc3cc(C(F)(F)F)ccc3[nH]2)CC1: true (1)
Oc1ccc(/C=C/c2cc(O)cc(O)c2)cc1: false (0)
NC(=O)c1c(NC(=O)C2CC2)sc2c1CCCC2: false (0)
NC(=O)c1cc(-c2ccnc(NC3CCCCC3)c2)nc(N2CCNCC2)c1: false (0)
CCNc1nc(Nc2cc(F)c(C(=O)N3CCOCC3)cc2OC)ncc1C(F)(F)F: false (0)

Dear colleague, could you confirm whether residual activity of O=C(O)c1cc(N=Nc2ccc(S(=O)(=O)Nc3ccccn3)cc2)ccc1O falls below 90%? Thanks.
false (0)

Next record, please: CNc1nc(-c2ccc3c(N)n[nH]c3c2)cc(N2C[C@@H](C(=O)NC3CCCCC3)CC[C@H]2C)n1
false (0)

###

- targetEntity: PLK1 (human)
- protocol: radiometric filter-binding kinase assay
- testContext: compound 1.0 µM
Entries and their measured residual activity follow.
// note: answer is a bare numeric in %

c1ccc2c(-c3cnn4cc(-c5ccc(N6CCNCC6)cc5)cnc34)ccnc2c1: 100

Can you share its residual activity? I mean this compound: Cc1cc(SCc2sc(-c3ccc(C(F)(F)F)cc3)nc2C)ccc1OCC(=O)O
75

What about this compound? COc1cc(O)c2c(c1)/C=C/C[C@H](O)[C@H](O)C(=O)/C=C\C[C@H](C)OC2=O
100

And for Cc1nc(-c2ccc(OCC(C)C)c(C#N)c2)sc1C(=O)O ?
94

Input CN1C(=O)[C@@H](Cc2c[nH]c3ccccc23)NC1=S
81

What would you report for NS(=O)(=O)OC[C@@H]1C[C@@H](n2ccc3c(N[C@H]4CCc5ccccc54)ncnc32)C[C@@H]1O ?
93
